The origin of these recorded values is ChEMBL document CHEMBL3120102.

- assay.info: Cytotoxicity against human OVCAR4 cells assessed as growth inhibition after 48 hrs by SRB assay
- Assay type: functional
- measurement.context: OVCAR-4, 48 h
value.type: TGI (µM)
The figure you give is taken to be in µM; do not add the unit.

For reference, reported TGI for O=C1c2ccccc2C(=O)c2c1ccc1nc(SCCN3CCCC3)[nH]c21 stands at 7.34

For reference, reported TGI for CN(C)CCCSc1nc2ccc3c(c2[nH]1)C(=O)c1ccccc1C3=O stands at 5.04

* * *

- System: KM12
- assay.info: Cytotoxicity against human KM12 cells assessed as cell growth at 10 uM after 48 hrs by SRB assay
- Type: functional
- measurement.context: KM12, 48 h, read-out: Activity
value.type: growth at 10 µM (%)
The figure you give is taken to be in %; do not add the unit.

For reference, reported growth at 10 µM for CCSc1nc2ccc3c(c2[nH]1)C(=O)c1ccccc1C3=O stands at 68.3

For reference, reported growth at 10 µM for O=C1c2ccccc2C(=O)c2c1ccc1nc(SCCN3CCCC3)[nH]c21 stands at 19.6

For reference, reported growth at 10 µM for O=C1c2ccccc2C(=O)c2c1ccc1[nH]c(=S)[nH]c21 stands at 102

For reference, reported growth at 10 µM for CCCSc1nc2ccc3c(c2[nH]1)C(=O)c1ccccc1C3=O stands at 55.2

For reference, reported growth at 10 µM for O=C1c2ccccc2C(=O)c2c1ccc1nc3n(c21)CCS3 stands at 84.9

For reference, reported growth at 10 µM for CN(C)CCCSc1nc2ccc3c(c2[nH]1)C(=O)c1ccccc1C3=O stands at 20.4

* * *

Field: TGI. Provide a value for each of the molecules that follow.
- assay.info: Cytotoxicity against human OVCAR5 cells assessed as growth inhibition after 48 hrs by SRB assay
- Format: functional
- measurement.context: OVCAR-5, 48 h
The figure you give is taken to be in µM; do not add the unit.

For reference, reported TGI for O=C1c2ccccc2C(=O)c2c1ccc1nc(SCCN3CCCC3)[nH]c21 stands at 29.4

For reference, reported TGI for CN(C)CCCSc1nc2ccc3c(c2[nH]1)C(=O)c1ccccc1C3=O stands at 25.9

* * *

- Tested on: SF-268
- assay.info: Cytotoxicity against human SF268 cells assessed as cell growth at 10 uM after 48 hrs by SRB assay
- Assay type: functional
- measurement.context: SF-268, 48 h, read-out: Activity
value.type: growth at 10 µM

For reference, reported growth at 10 µM for O=C1c2ccccc2C(=O)c2c1ccc1nc(SCCN3CCCC3)[nH]c21 stands at 42%

For reference, reported growth at 10 µM for CCSc1nc2ccc3c(c2[nH]1)C(=O)c1ccccc1C3=O stands at 75.7%

For reference, reported growth at 10 µM for CN(C)CCCSc1nc2ccc3c(c2[nH]1)C(=O)c1ccccc1C3=O stands at 53.1%

For reference, reported growth at 10 µM for O=C1c2ccccc2C(=O)c2c1ccc1nc3n(c21)CCS3 stands at 56.1%

For reference, reported growth at 10 µM for O=C1c2ccccc2C(=O)c2c1ccc1[nH]c(=S)[nH]c21 stands at 90.3%

For reference, reported growth at 10 µM for CCCSc1nc2ccc3c(c2[nH]1)C(=O)c1ccccc1C3=O stands at 47.8%

* * *

Field: growth at 10 µM. Provide a value for each of the compounds that follow.
- System: SR
- assay.info: Cytotoxicity against human SR cells assessed as cell growth at 10 uM after 48 hrs by SRB assay
- Format: functional
- measurement.context: read-out: Activity
The figure you give is taken to be in %; do not add the unit.

For reference, reported growth at 10 µM for O=C1c2ccccc2C(=O)c2c1ccc1[nH]c(=S)[nH]c21 stands at 125

For reference, reported growth at 10 µM for O=C1c2ccccc2C(=O)c2c1ccc1nc3n(c21)CCS3 stands at 60.6

For reference, reported growth at 10 µM for CCCSc1nc2ccc3c(c2[nH]1)C(=O)c1ccccc1C3=O stands at 71

For reference, reported growth at 10 µM for CN(C)CCCSc1nc2ccc3c(c2[nH]1)C(=O)c1ccccc1C3=O stands at 3.09

For reference, reported growth at 10 µM for O=C1c2ccccc2C(=O)c2c1ccc1nc(SCCN3CCCC3)[nH]c21 stands at 20.2

For reference, reported growth at 10 µM for CCSc1nc2ccc3c(c2[nH]1)C(=O)c1ccccc1C3=O stands at 129

* * *

- Tested on: BT-549
- assay.info: Cytotoxicity against human BT549 cells assessed as cell growth at 10 uM after 48 hrs by SRB assay
- Assay type: functional
- measurement.context: BT-549, 48 h, read-out: Activity
Decision: growth at 10 µM >= 80% yields Satisfied, all other cases yield Not satisfied.

Ask: Quick check, growth at 10 µM >= 80%? O=C1c2ccccc2C(=O)c2c1ccc1[nH]c(=S)[nH]c21
Result: Satisfied

Ask: Quick check, growth at 10 µM >= 80%? CCCSc1nc2ccc3c(c2[nH]1)C(=O)c1ccccc1C3=O
Result: Not satisfied

Ask: Quick check, growth at 10 µM >= 80%? CN(C)CCCSc1nc2ccc3c(c2[nH]1)C(=O)c1ccccc1C3=O
Result: Not satisfied

Ask: Quick check, growth at 10 µM >= 80%? CCSc1nc2ccc3c(c2[nH]1)C(=O)c1ccccc1C3=O
Result: Not satisfied

Ask: Quick check, growth at 10 µM >= 80%? O=C1c2ccccc2C(=O)c2c1ccc1nc3n(c21)CCS3
Result: Satisfied

* * *

- assay.info: Cytotoxicity against human UACC257 cells assessed as cell growth at 10 uM after 48 hrs by SRB assay
- Type: functional
- measurement.context: UACC-257, 48 h, read-out: Activity
With a cut-off of 90%, any growth at 10 µM strictly below it is called rule met; any growth at 10 µM meeting it or above is called rule not met.

Ask: Record CN(C)CCCSc1nc2ccc3c(c2[nH]1)C(=O)c1ccccc1C3=O : is its growth at 10 µM strictly below 90%?
Result: rule not met

Ask: Record O=C1c2ccccc2C(=O)c2c1ccc1[nH]c(=S)[nH]c21 : is its growth at 10 µM strictly below 90%?
Result: rule not met

Ask: Record O=C1c2ccccc2C(=O)c2c1ccc1nc3n(c21)CCS3 : is its growth at 10 µM strictly below 90%?
Result: rule met

Ask: Record CCCSc1nc2ccc3c(c2[nH]1)C(=O)c1ccccc1C3=O : is its growth at 10 µM strictly below 90%?
Result: rule met

Ask: Record O=C1c2ccccc2C(=O)c2c1ccc1nc(SCCN3CCCC3)[nH]c21 : is its growth at 10 µM strictly below 90%?
Result: rule not met

Ask: Record CCSc1nc2ccc3c(c2[nH]1)C(=O)c1ccccc1C3=O : is its growth at 10 µM strictly below 90%?
Result: rule not met

* * *

- System: RXF 393
- assay.info: Cytotoxicity against human RXF393 cells assessed as growth inhibition after 48 hrs by SRB assay
- Assay type: functional
- measurement.context: RXF 393, 48 h
Field: GI50. Provide a value for each of the compounds that follow.
The figure you give is taken to be in nM; do not add the unit.

For reference, reported GI50 for CN(C)CCCSc1nc2ccc3c(c2[nH]1)C(=O)c1ccccc1C3=O stands at 1890

For reference, reported GI50 for CCSc1nc2ccc3c(c2[nH]1)C(=O)c1ccccc1C3=O stands at 5170

For reference, reported GI50 for O=C1c2ccccc2C(=O)c2c1ccc1nc(SCCN3CCCC3)[nH]c21 stands at 3080

For reference, reported GI50 for CCCSc1nc2ccc3c(c2[nH]1)C(=O)c1ccccc1C3=O stands at 2650

* * *

- System: UACC-62
- assay.info: Cytotoxicity against human UACC62 cells assessed as cell growth at 10 uM after 48 hrs by SRB assay
- Format: functional
- measurement.context: UACC-62, 48 h, read-out: Activity
Field: growth at 10 µM. Provide a value for each of the compounds that follow.
The figure you give is taken to be in %; do not add the unit.

For reference, reported growth at 10 µM for O=C1c2ccccc2C(=O)c2c1ccc1[nH]c(=S)[nH]c21 stands at 84.2

For reference, reported growth at 10 µM for CN(C)CCCSc1nc2ccc3c(c2[nH]1)C(=O)c1ccccc1C3=O stands at 75.4

For reference, reported growth at 10 µM for CCSc1nc2ccc3c(c2[nH]1)C(=O)c1ccccc1C3=O stands at 47.6

For reference, reported growth at 10 µM for CCCSc1nc2ccc3c(c2[nH]1)C(=O)c1ccccc1C3=O stands at 51.1

For reference, reported growth at 10 µM for O=C1c2ccccc2C(=O)c2c1ccc1nc3n(c21)CCS3 stands at 73.1

For reference, reported growth at 10 µM for O=C1c2ccccc2C(=O)c2c1ccc1nc(SCCN3CCCC3)[nH]c21 stands at 81
